assay: beta-catenin nuclear localization change in HeLa – imaging, HeLa cells, immunofluorescence, high-content, primary screen (AID 1665); conditions: at 5 µM; HeLa beta-catenin nuclear translocation, measured here: cell count, cytotoxicity flag
Hit rate of the full screen: of about 190,000 compounds, about 590 (0.31%) were called active. The sample as a whole holds a higher share of actives than the screen did.
Give cell count for every item shown.

Sample records with cell count:
Cc1ccc(NC(=O)/C(=C\c2ccccc2)NC(=O)c2ccco2)cc1 | 1370 cells
COC(=O)CNc1nc(Cl)nc(N2CCC(C)CC2)n1 | 1320 cells
O=C(NNC(=O)c1cc2c(s1)CCCC2)c1ccccc1 | 547 cells

List cell count for every entry below, keeping the order given.
1. Cc1ccc(/C=N/NC(=S)Nc2cccc(S(=O)(=O)N(C)C)c2)o1
2. CCOc1ccc(/C(O)=C2\C(=O)C(=O)N(c3ccc(OC)cc3)C2c2ccccc2[N+](=O)[O-])cc1 (stereo not drawn)
3. CCCNc1c(N)c(=O)c1=O
4. O=C(Nc1cccnc1Oc1ncnc2cc(Cl)ccc12)c1ccc(F)cc1
5. Cc1cccc(N(C)C(=O)c2cc3c(=O)[nH]c4ccc(C)cc4c3s2)c1
6. O=C(O)CC1(CC(=O)Nc2cccc(C(F)(F)F)c2)CCCC1
7. Cc1cc(C)nc(SCc2cn3c(C)cc(C)nc3n2)n1
8. c1csc(-c2nnc(COc3ncnc4sccc34)o2)c1

1. 1210 cells
2. 1260 cells
3. 1380 cells
4. 1330 cells
5. 369 cells
6. 1260 cells
7. 1340 cells
8. 1250 cells

* * *

experiment: beta-catenin nuclear localization change in HeLa – imaging, HeLa cells, immunofluorescence, high-content, primary screen (AID 1665); conditions: at 5 µM; HeLa beta-catenin nuclear translocation, measured here: cell count, cytotoxicity flag
About 590 (0.31%) of roughly 190,000 compounds were called active. This excerpt belongs to a sample that is enriched for actives.
Give cell count for every item shown.
Numbers only, in cells.

Sample records with cell count:
Cc1cc(=O)oc2cc(OCC3CC(c4ccccc4Cl)=NO3)ccc12 (stereo unspecified) | 228
Cc1cc(=O)oc2cc(OCCC[n+]3ccccc3)ccc12 | 1370
O=C(O)C1CCN(C(=O)c2cc(F)cc3c2OCOC3)CC1 | 1200

List cell count for every entry below, keeping the order given.
1. COc1ccc(CNC(=O)C2CC(c3ccc(C(F)(F)F)cc3)=NO2)cc1 (stereo unspecified)
2. CC(C)Sc1nnc([C@H](Cc2ccccc2)NC(=O)OC(C)(C)C)o1
3. O=C(N/N=C/c1ccc([N+](=O)[O-])cc1)c1c[nH]c2ccccc12
4. COC(=O)c1cn(C(=O)c2ccc(Cl)cc2)c2ccccc12

1110
1410
1150
1100

* * *

Give cell count for every item shown.
test: beta-catenin nuclear localization change in HeLa – imaging, HeLa cells, immunofluorescence, high-content, primary screen (AID 1665); conditions: at 5 µM; HeLa beta-catenin nuclear translocation, measured here: cell count, cytotoxicity flag
In all, about 190,000 compounds went through this assay and about 590 (0.31%) were called active. The entries come from a sample that favours actives as a whole.
Numbers only, in cells.

COc1ccc(-c2nn(C)c(=O)c3ccccc23)cc1CNC(=O)C1CCCCC1 | 1350
COc1ccc(Nc2nc(Cl)nc(NCc3ccco3)n2)cc1 | 1380
COc1ccc2nc(Nc3nc4ccc(NC(C)=O)cc4s3)sc2c1 | 875
COc1ccc(CCN2C(=O)N(c3ccc(OC)cc3)C(=O)C2CC(=O)Nc2ccc(OC)cc2)cc1 (stereo unspecified) | 1360
CCOCCn1c(-c2ccccc2)nc2ccccc21 | 1340
CCCC(=O)Nc1nc2ccc(NC(=O)c3cccnc3)cc2s1 | 895
C[C@@H](NC(=O)OC(C)(C)C)c1nnc(S(=O)(=O)Cc2ccccc2)o1 | 1360
CCCC(=O)Nc1nc2ccc(NC(=O)c3c(F)c(F)c(OC)c(F)c3F)cc2s1 | 260

List cell count for every entry below, keeping the order given.
1. COc1ccc(Nc2oc(-c3ccccc3Cl)nc2C#N)cc1
2. COc1ccc(CCNC(=O)C(=O)NCC2CCNCC2)cc1OC
3. COC(=O)c1ccc(S(=O)(=O)NCc2ccccc2)n1C

1. 210
2. 1380
3. 1270
